- Test system: Bacillus subtilis
- experimental details: cleaved RNA product abundance (RNA/gDNA barcode ratio) relative to median wild-type variant (ratio to wild type); higher = more accumulation of the downstream cleavage product
- protocol conditions: experiment (reporter, strain, medium): exp 2b: truncated aprE reporter, strain BJT200; cleavage site: cggR-gapA (positions -7 to +36 mutated)
measured property: cleaved RNA product abundance
Give a plain numeric answer without units written out.

Name the recorded cleaved RNA product abundance for ACAGACGAAGGAGCCGCAAAGAAGTTATTAATGGATGAATAATCCCTCAATATACATATCTCTCACTTATTTAAA . 0.157

Tell me the measured cleaved RNA product abundance of ACAGACGAAGGAGCCGCGAAGAAGTTATTAAGGGATGAATAATCCCACAATATAAATATCTCTCACTTATTTAAA , please. 0.17

Please look up its cleaved RNA product abundance: ACAGACGAAGGAGCCGCAAAGAAGTTATTAATGGATGAATAACCCCTCAATATAAATATCTCTCACTTATTTAAA 0.0893

Form field: reported cleaved RNA product abundance of ACAGACGAAGGAGCCGCAAATAAGTTATTAAGGGATGAATAATCCATCAATATAAATATCTCTCACTTATTTAAA 0.172
